Origin of measurements: patent US8134015B2

TEST TARGET: rat NaPi-2b (Rattus norvegicus, UniProt Q9JJ09)
Sequence (Q9JJ09 whole entry): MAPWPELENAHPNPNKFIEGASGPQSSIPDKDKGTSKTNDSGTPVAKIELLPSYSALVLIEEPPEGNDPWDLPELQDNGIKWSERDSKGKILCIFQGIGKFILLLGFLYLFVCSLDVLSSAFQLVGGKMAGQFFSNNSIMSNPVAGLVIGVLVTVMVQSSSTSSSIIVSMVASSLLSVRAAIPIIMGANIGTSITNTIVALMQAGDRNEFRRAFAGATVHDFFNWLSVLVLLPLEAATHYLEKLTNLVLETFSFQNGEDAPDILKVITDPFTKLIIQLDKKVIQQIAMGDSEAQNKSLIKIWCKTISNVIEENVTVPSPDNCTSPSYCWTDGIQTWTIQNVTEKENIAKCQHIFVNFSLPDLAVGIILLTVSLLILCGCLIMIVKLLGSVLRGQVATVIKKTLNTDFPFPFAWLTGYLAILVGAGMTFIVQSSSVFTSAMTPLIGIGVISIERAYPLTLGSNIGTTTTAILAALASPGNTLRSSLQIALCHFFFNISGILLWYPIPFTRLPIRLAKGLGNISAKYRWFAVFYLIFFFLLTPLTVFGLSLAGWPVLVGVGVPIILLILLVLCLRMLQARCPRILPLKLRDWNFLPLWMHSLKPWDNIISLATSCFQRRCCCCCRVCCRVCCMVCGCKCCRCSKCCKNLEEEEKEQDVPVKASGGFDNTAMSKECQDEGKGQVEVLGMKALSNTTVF
TEST: Sodium-dependent phosphate uptake of Xenopus oocytes which expressed NaPi-2b (32P)
CONDITION PARAMETERS: Xenopus oocytes expressing rat NaPi-2b, 32P radioactive phosphorus; read-out: IC50 (phosphate uptake inhibitory activity)
Experimental: Pharmacological Test Example 1 Experiment of Sodium-Dependent Phosphate Uptake of Xenopus oocytes which Expressed NaPi-2b Degenerate primers were prepared from sequences of mouse NaPi-2b disclosed in Hilfiker H. et al., Pro Natl Acad Sci USA, 95 (24): 14564-14569, […] and sequences of human and rat NaPi-2a disclosed in Magagnin S. et al., Proc Natl Aca Sci USA, 90 (13): 5979-5983, 1993. RNA was extracted from the rat small intestine using ISOGEN; manufactured by NIPPON GENE CO., LTD (Japan). […]
pIC50: −log10 of the molar value.
QUANTITY NAME: pIC50

MOLECULE | QUANTITY NAME | CENSOR SYMBOL | DATA VALUE
Cc1ccc(/C=N/NC(=O)c2cc(Cl)ccc2NC(=O)c2cccc(CSCc3ccco3)c2)cc1 | pIC50 | = | 4.90
Cc1cccc(/C=N/NC(=O)c2ccccc2NC(=O)c2cc(C)oc2C)c1 | pIC50 | = | 5.67
COc1cccc(/C=N/NC(=O)c2cc(Br)ccc2NC(=O)c2ccc(CNCCCN(C)c3ccccc3)cc2)c1 | pIC50 | = | 4.95
Cc1sc(NC(=O)c2cccc(CN(CC(C)O)CC(C)O)c2)c(C(=O)N/N=C/c2ccc(Cl)c(C(F)(F)F)c2)c1C (stereo not shown) | pIC50 | > | 5.52
CCN(CC)CCN(C)Cc1cccc(C(=O)Nc2sc3c(c2C(=O)N/N=C(\C)c2cccc(F)c2)CCCC3)c1 | pIC50 | = | 5.04
Cc1csc(NC(=O)c2cccc(CN3CCC(O)CC3)c2)c1C(=O)N/N=C/c1ccc(Cl)c(C(F)(F)F)c1 | pIC50 | = | 5.83
CCN(CC)CCN(C)Cc1cccc(C(=O)Nc2sccc2C(=O)N/N=C/c2ccc(Cl)c(C(F)(F)F)c2)c1 | pIC50 | = | 5.04
